Source: ChEMBL document CHEMBL4689842

system: HEK-293T; experiment: Multiplex assay against HEK293T; assay type: toxicity, cell-based; settings: human, 48 h, 10 µM, compound concentration 10 uM, replicate 2
Consider the following molecules; for each one, report its Population Membrane Permeable-Phenotype (%).
One number for each entry, in %.

Below, 5 molecules whose answers are already recorded.
C[C@@H](NCCCc1cccc(C(F)(F)F)c1)c1cccc2ccccc12.Cl [CINACALCET HYDROCHLORIDE] : 8
CN1CCC[C@@H]1CCO[C@](C)(c1ccccc1)c1ccc(Cl)cc1.O=C(O)/C=C/C(=O)O [CLEMASTINE FUMARATE] : 8
OC1(c2ccc(Cl)cc2)CCN(Cc2c[nH]c3ccccc23)CC1 : 4
CNc1nc(NCc2ccc(NS(C)(=O)=O)cc2Cl)cc(-c2ccccn2)n1 : 7
COc1ncc(-c2ccc3nccc(-c4ccnnc4)c3c2)cc1NS(=O)(=O)c1ccc(F)cc1F : 0

For every listed record, write down its Population Membrane Permeable-Phenotype (%).
1. CN(C)CC#Cc1ccc(OCCCc2sc(N3CCc4cccc(C(=O)Nc5nc6ccccc6s5)c4C3)nc2C(=O)O)c(F)c1
2. Cn1cc(-c2[nH]c3cc(NC(=O)[C@H](N)C4CCCCC4)cc4c3c2C=NNC4=O)cn1
3. COc1cc2nccc(Oc3ccc(NC(=O)Nc4cc(C)on4)c(Cl)c3)c2cc1OC.O

Response:
[43, 0, 1]

###

tested on: Fibroblast; experiment: Multiplex assay against human fibroblast; assay type: toxicity, cell-based; conditions: 12 h, 1 µM, compound concentration 1 uM, replicate 2
Note to self: values exactly at 90% are Satisfied. So Population Normal (%) at or above 90% is Satisfied, below is Not satisfied.

Example entries begin here.
CN(C)C(=O)/C(C#N)=C/c1ccc(-c2nc3cnc4[nH]ccc4c3n2C2CCCCC2)o1 : Satisfied
CCN(CC)CCCCNc1ncc2cc(-c3cc(OC)cc(OC)c3)c(NC(=O)NC(C)(C)C)nc2n1 : Not satisfied
CC(C)(O)CNc1ncc(-c2ccnc(Nc3ccnc(Cl)c3)n2)c(CC2CC2)n1 : Satisfied
Cc1csc2c(N[C@@H](C)CN3CCN(S(=O)(=O)c4ccc(Cl)c(Cl)c4)CC3)ncnc12 : Satisfied

Consider the additional compound presented here.
Request: Is Population Normal (%) at least 90%? Consider Cc1nc(-c2cn3c(n2)-c2ccc(-c4cnn(C(C)(C)C(N)=O)c4)cc2OCC3)n(C(C)C)n1
Response: Not satisfied

###

Provide the recorded Population Mitochondria Different-Phenotype (%) for the entries that follow.
test system: Fibroblast; assay: Multiplex assay against human fibroblast; type: toxicity, cell-based; conditions: 48 h, 10 µM, compound concentration 10 uM, replicate 1

Dear reader, for each entry below, please note its Population Mitochondria Different-Phenotype (%).
1. COc1ncc(-c2ccc3nccc(-c4ccnnc4)c3c2)cc1NS(=O)(=O)c1ccc(F)cc1F
2. Cc1[nH]c(/C=C2\C(=O)Nc3ccc(S(=O)(=O)N(C)c4cccc(Cl)c4)cc32)c(C)c1C(=O)N1CCN(C)CC1
3. C[C@@H](NCCCc1cccc(C(F)(F)F)c1)c1cccc2ccccc12.Cl [CINACALCET HYDROCHLORIDE]
4. CN(C)CC#Cc1ccc(OCCCc2sc(N3CCc4cccc(C(=O)Nc5nc6ccccc6s5)c4C3)nc2C(=O)O)c(F)c1
5. Cc1csc2c(N[C@@H](C)CN3CCN(S(=O)(=O)c4ccc(Cl)c(Cl)c4)CC3)ncnc12

Response:
14%
76%
68%
10%
56%
